Tested on: RPMI-8226 leukemia
assay method text: NCI tumour cell line growth inhibition, 48 h
measured quantity: TGI

Sample answers from the record:
molecule | study system | TGI
Cc1nnc(N/N=C(/C(=O)C(C#N)c2ccccc2)C(C#N)c2ccccc2)n1N (centres undefined) | RPMI-8226 leukemia | 85.8 µM
O=S(=O)(O)c1cc2ccc1/C=C\c1ccc(cc1S(=O)(=O)O)N=Nc1ccc(c(S(=O)(=O)O)c1)/C=C\c1ccc(cc1S(=O)(=O)O)N=N2 | RPMI-8226 leukemia | > 100 µM
CC(=O)N(C(C)=O)C1=C2c3ccccc3N(S(=O)(=O)c3ccccc3)C2n2c(=O)n(-c3ccccc3)c(=O)n2C1 (centres undefined) | RPMI-8226 leukemia | 40.2 µM
Cc1c(C(=O)CSc2nc3ccccc3c(=O)n2-c2ccccc2)c(=O)n(-c2ccccc2)n1C | RPMI-8226 leukemia | > 100 µM

Name the reported TGI value associated with the molecule O=C1c2cccnc2-c2nc(-c3ccncc3)cc3c2c1nc1ccccc13
64.8 µM

Name the reported TGI value associated with the molecule COCCOCCOCc1n(Cc2ccc3ccccc3n2)c2ccccc2[n+]1Cc1ccc2ccccc2c1
1.33 µM

Name the reported TGI value associated with the molecule C=CCO/N=C/c1cc(NC(=S)c2ccoc2C)ccc1Cl
12.1 µM

Name the reported TGI value associated with the molecule c1ccc2sc(SCSc3nc4ccccc4s3)nc2c1
> 100 µM

Name the reported TGI value associated with the molecule C=CCNC(=S)/N=C/c1c(O)c2ccccc2oc1=O
> 100 µM

* * *

Test system: UACC-257 melanoma
assay method text: NCI tumour cell line growth inhibition, 48 h
measured quantity: GI50

Sample answers from the record:
compound | study system | assay value
CC1CCCc2c1nn(C(=O)/C=C(\N)c1ccccc1)c2N (stereo not drawn) | UACC-257 melanoma | 25600 nM
COc1ccc(CC(C)C(C)Cc2ccc(OC)c(OC)c2)cc1OC (stereo not drawn) | UACC-257 melanoma | 80700 nM
CC(=O)[O-].CC(=O)[O-].CC(=O)[O-].CC(=O)[O-].[Mo+2].[Mo+2] | UACC-257 melanoma | > 100000 nM
C=C1CC2(OC1=O)C(=O)N(CCCN1C(=O)C3(CC(=C)C(=O)O3)c3ccccc31)c1ccccc12 (stereo not drawn) | UACC-257 melanoma | 1660 nM
C[C@H]1[C@H](C)CC[C@]2(C(=O)NCCNCCN)CC[C@]3(C)C(=CC[C@@H]4[C@@]5(C)CCC(=O)C(C)(C)[C@@H]5CC[C@]43C)[C@H]12 | UACC-257 melanoma | 1840 nM
COc1cc2c(cc1-c1c(C)noc1C)cc(C)c(=O)n2Cc1ccccn1 | UACC-257 melanoma | 2180 nM

Name the reported GI50 value associated with the compound O=C1c2cccnc2-c2nc(-c3ccncc3)cc3c2c1nc1ccccc13
> 100000 nM

Name the reported GI50 value associated with the compound CCCCCCCCCCN=C(c1ccc(N(C)C)cc1)c1ccc(N(C)C)cc1
16500 nM

Name the reported GI50 value associated with the compound C=C(CN1CCc2ccccc2C1)c1ccc(C(=O)Nc2ccccc2N)cc1
1550 nM

* * *

Test system: HL-60(TB) leukemia
assay method text: NCI tumour cell line growth inhibition, 48 h
Lab note: compare TGI against 20 µM. Equal or greater, write rule met. Smaller, write rule not met.

molecule | category
CC1CC[C@@]2(OC1)OC1C[C@H]3[C@@H]4CC[C@H]5CC(OC6OC(CO)C(OC7OC(CO)C(O)C(O)C7OC7OC(CO)C(O)C(O)C7O)C(O)C6O)CCC5(C)[C@H]4CCC3(C)C1[C@@H]2C (stereo partly drawn) | rule not met

// next entry
Textbook exercise: given the entry CNC(SC)=C1C(=O)OC(C)(C)OC1=O , state whether its TGI is greater than or equal to 20 µM.
rule met

* * *

Test system: SR leukemia
assay method text: NCI tumour cell line growth inhibition, 48 h
Where a SMILES comes first, the peptide text is derived from it. The star is where a group is joined. Boc = CC(C)(C)OC(=O)*
measured quantity: TGI

Sample answers from the record:
compound | TGI
CC(C)(C)OC(=O)NCC(=O)NCC(=O)NCC(=O)NCC(=O)O (Boc-GGGG-OH) | > 100 µM
Clc1ccc(-c2nn3c(-c4ccncc4)nnc3s2)cc1 | > 100 µM
CC/C(=N\NS(=O)(=O)c1ccccc1)c1ccccc1 | > 100 µM
c1ccc2c(c1)NC(C1OC3CCCN3C1C1Nc3ccccc3S1)S2 (stereo not given) | > 100 µM
CC(=O)N(C(C)=O)C1=C2c3ccccc3N(S(=O)(=O)c3ccccc3)C2n2c(=O)n(-c3ccccc3)c(=O)n2C1 (stereo not given) | 39.5 µM
C=CCSc1nc2ccccc2c(=O)n1Cc1ccco1 | > 100 µM
OB1OCc2cc(/C=C/c3cccc(C(F)(F)F)c3)ccc21 | 11.6 µM
C1=CC2=CC=CC3c4nc5ccc6ccccc6c5nc4C(=C1)C23 (stereo not given) | > 100 µM

Name the reported TGI value associated with the compound C=C[C@@H]1C(CO)=CCC2[C@H]1CCC1C(C)(C)C(=O)CC[C@]21C (stereo not given in full)
> 100 µM

Name the reported TGI value associated with the compound COc1ccc(-c2nnc(N3CCN(C(=O)CN4CCN(c5ccc(OC)cc5)CC4)CC3)nc2-c2ccc(OC)cc2)cc1
4.04 µM

* * *

Tested on: OVCAR-3 ovarian
assay method text: NCI tumour cell line growth inhibition, 48 h; in the data active = GI50 below about 0.43 µM; inactive = the rest
Write down the outcome that applies. Available outcomes: T = active, F = inactive

molecule | category
c1ccc2nc3c(cc4ccccn43)nc2c1 | F

Query: recorded result category for C=C1CC2(OC1=O)C(=O)N(CCCN1C(=O)C3(CC(=C)C(=O)O3)c3ccccc31)c1ccccc12 (stereo unspecified) in this test
F

Query: recorded result category for COc1cc2c(cc1-c1c(C)noc1C)cc(C)c(=O)n2Cc1ccccn1 in this test
F

Query: recorded result category for COCCOCCOCc1n(Cc2ccc3ccccc3n2)c2ccccc2[n+]1Cc1ccc2ccccc2c1 in this test
T

* * *

System: EKVX NSCLC
assay method text: NCI tumour cell line growth inhibition, 48 h
The compounds listed here are annotated with their GI50.

Sample answers from the record:
compound | study system | measured quantity | assay value
Cn1c(/C(C#N)=C/c2ccc3ccccc3c2)cc2ccccc21 | EKVX NSCLC | GI50 | 0.471 µM
NC(=O)c1cccc(Nc2nccc(Nc3cccc(F)c3)n2)c1 | EKVX NSCLC | GI50 | 12.3 µM
O=S1(=O)NCCCN1CCNc1nccc(-c2c(-c3cccc(O)c3)nc3sccn23)n1 | EKVX NSCLC | GI50 | 61.3 µM

Turning now to a further record.
Name the reported GI50 value associated with the compound CCN(CC)CCNC(=O)c1cn2ncnc(Oc3ccc(NC(=O)Nc4ccc(Cl)c(C(F)(F)F)c4)c(F)c3)c2c1C
1.92 µM

* * *

Tested on: MALME-3M melanoma
assay method text: NCI tumour cell line growth inhibition, 48 h; in the data active means GI50 below about 0.43 µM; inactive means the rest
Write down the outcome that applies. Available outcomes: active, inactive

compound | category
COc1ccc(/C=C2/CCc3cc4ccc(OC)cc4[o+]c32)c(O)c1 | inactive
COc1cc2c(cc1-c1c(C)noc1C)cc(C)c(=O)n2Cc1ccccn1 | inactive
Cc1ccc2nc3c(Cl)c(C)c(=O)cc-3sc2c1 | inactive
Cn1cc(-c2csc(-c3cn(C)c4ccccc34)n2)c2cnccc21 | inactive
C=C1CC2(OC1=O)C(=O)N(CCCN1C(=O)C3(CC(=C)C(=O)O3)c3ccccc31)c1ccccc12 (centres undefined) | inactive

Query: recorded result category for CCC1=C[C@@H]2CN(C1)Cc1c([nH]c3ccccc13)[C@@](C(=O)OC)(c1cc3c(cc1OC)N(C)[C@H]1[C@@](O)(C(=O)OC)[C@H](OC(C)=O)[C@]4(CC)[C@@H]5C[C@@H]5CN5CC[C@]31[C@@H]54)C2 in this test
active

* * *

Test system: M14 melanoma
assay method text: NCI tumour cell line growth inhibition, 48 h
measured quantity: TGI

Sample answers from the record:
compound | study system | assay value
OC(c1ccc(Br)cc1)(c1cccs1)C1CC1 (stereo not drawn) | M14 melanoma | 45.3 µM
COc1ccc(Nc2nc3ccccc3nc2-c2cccs2)cc1 | M14 melanoma | > 100 µM
CCOC(=O)C(=O)Nc1ccccc1C(F)(F)F | M14 melanoma | > 100 µM
NC(=O)C1(N2CCCCC2)CCN(CCCC(=O)c2ccc(F)cc2)CC1 | M14 melanoma | 7.72 µM

Name the reported TGI value associated with the compound O=C1C2=C(c3ccccc31)C(c1ccccc1Cl)N1C(=O)CCSC1=N2 (stereo not drawn)
> 100 µM

Name the reported TGI value associated with the compound CC12CC(=O)C3C(C(=O)C1)C32C (stereo not drawn)
> 100 µM

Name the reported TGI value associated with the compound Cc1ccccc1C(O)(c1nccn1C)c1nccn1C
> 100 µM

Name the reported TGI value associated with the compound CCSc1nc(N)c2cn[nH]c2n1
> 100 µM

Name the reported TGI value associated with the compound c1ccc2sc(SCSc3nc4ccccc4s3)nc2c1
> 100 µM

Where do the numbers come from? From PubChem BioAssay (NCI).
